Assay: Cell viability (PrestoBlue) of miPSC-derived cardiomyocytes
Type: cell-based, murine
Settings: mouse, αPIG-AT25 miPSC-derived cardiomyocytes (puromycin-selected); 10 μM, 72 h of exposure; read-out: decrease of cardiomyocyte viability

| Structure notation | cytotoxicity at 72 h, 10 μM (%) |
| --- | --- |
| Oc1ccccc1CN[C@@H]1CCCC[C@H]1NCc1ccccc1O | 11 |
| Oc1c(/C=N/[C@H]2CCCC[C@@H]2NCc2cccc(-c3ccccc3)c2O)cccc1-c1ccccc1 | 18.5 |
| Oc1c(/C=N/[C@@H]2CCCC[C@H]2NCc2cccc(-c3ccccc3)c2O)cccc1-c1ccccc1 | 14.1 |
